Source listed as ChEMBL document CHEMBL3259545.

- Test system: Trypanosoma brucei brucei
- Experiment notes: Antitrypanosomal activity against Trypanosoma brucei brucei 427 after 72 hrs by alamar blue assay
- Type: functional, organism-based
- Condition label: Trypanosoma brucei, 427, 72 h
Mark Fulfilled only when IC50 stays strictly below 0.7 µg/mL. Values equal to the cut-off are Not fulfilled.

Example entries begin here.
[Q] Below 0.7 µg/mL on IC50? Entry "O=C(c1ccc(F)cc1)c1ccn(-c2ccc3c(c2)B(O)OC3)c1"
[A] Fulfilled

[Q] Answer whether the compound "OB1OCc2ccc(-n3cccc3Sc3ccccc3Cl)cc21" has IC50 strictly less than 0.7 µg/mL
[A] Not fulfilled

[Q] Take the compound "OB1OCc2ccc(-n3cccc3Sc3ccc(Cl)c(Cl)c3)cc21" and say whether its IC50 is less than 0.7 µg/mL.
[A] Not fulfilled

---
[Q] Determine whether this compound shows IC50 lower than 0.7 µg/mL (ties excluded): "OB1OCc2ccc(-n3cc(Sc4ccc(O)cc4)c4ccccc43)cc21"
[A] Not fulfilled

[Q] Problem: For the compound "NCCCC(=O)c1ccn(-c2ccc3c(c2)B(O)OC3)c1" , is IC50 under 0.7 µg/mL?
[A] Not fulfilled

[Q] Hello, is IC50 of the following compound strictly smaller than 0.7 µg/mL? "CCc1ccc(C(=O)c2ccn(-c3ccc4c(c3)B(O)OC4)c2)cc1"
[A] Fulfilled

[Q] Lab note: confirm whether the reported IC50 for this compound is below 0.7 µg/mL, equality not counting. compound: "O=C(c1ccn(-c2ccc3c(c2)B(O)OC3)c1)c1cccs1"
[A] Fulfilled

[Q] Please indicate whether the reported IC50 of "O=C(c1ccc(Cl)cc1)c1ccn(-c2ccc3c(c2)B(O)OC3)c1" is strictly below 0.7 µg/mL.
[A] Fulfilled

[Q] Criterion: IC50 strictly below 0.7 µg/mL. Is it met by "Cc1ccccc1C(=O)c1ccn(-c2ccc3c(c2)B(O)OC3)c1" ?
[A] Fulfilled

[Q] Problem: For the compound "Cc1cccc(C(=O)c2ccn(-c3ccc4c(c3)B(O)OC4)c2)c1" , is IC50 under 0.7 µg/mL?
[A] Fulfilled

====

- System: Trypanosoma brucei brucei
- Experiment notes: Antitrypanosomal activity against Trypanosoma brucei brucei 427 after 72 hrs by alamar blue assay
- Format: functional, organism-based
- Condition label: Trypanosoma brucei, 427, 72 h
Measured quantity: IC50 (µg/mL)
Give just the number in µg/mL; leave the unit off.

Field IC50 (entry "O=C(c1ccn(-c2ccc3c(c2)B(O)OC3)c1)c1cccc2ccccc12" ) reads 0.4

// "O=C(c1ccc(Cl)cc1Cl)c1cccn1-c1ccc2c(c1)B(O)OC2" : IC50 value = 1.43

Please fill in: IC50 reported for "OB1OCc2ccc(-n3ccc(Cc4ccccc4)c3)cc21" = 2.17

Others:
Briefly, IC50 measured for "OB1OCc2ccc(-n3cccc3Sc3ccc(Cl)cc3)cc21" : 1.16

Given item "O=C(c1ccccc1)c1ccn(-c2ccc3c(c2)B(O)OC3)c1" , the value recorded as its IC50 is 0.09

Note to self: IC50 recorded for "Cc1ccc(C(=O)c2ccn(-c3ccc4c(c3)B(O)OC4)c2)s1" was 0.07

What the record says about "O=C(c1ccn(-c2ccc3c(c2)B(O)OC3)c1)c1ccccc1Cl" : IC50 is 0.28

====

- Tested on: Trypanosoma brucei brucei
- Experiment notes: Antitrypanosomal activity against Trypanosoma brucei brucei 427 after 72 hrs by alamar blue assay
- Assay type: functional, organism-based
- Condition label: Trypanosoma brucei, 427, 72 h
Measured quantity: log10 of IC50 (log10 of the value in µg/mL)
Hey, these are logged values: log10 of IC50, µg/mL being the unit before logging.

Recorded results for 2 compounds are shown here.
Lab note: "O=C(c1ccn(-c2ccc3c(c2)B(O)OC3)c1)c1ccc(Cl)cc1Cl" gave log10 of IC50 of 0.05

// recorded log10 of IC50 for "CC(=O)OCc1ccc(C(=O)c2ccn(-c3ccc4c(c3)B(O)OC4)c2)cc1" : -1.52

// next entry
Form field log10 of IC50, entry "O=C(CCc1ccccc1)c1ccn(-c2ccc3c(c2)B(O)OC3)c1" : -0.72
